These entries and their values trace back to ChEMBL document CHEMBL1156845.

experiment.notes: AUC (infinity) in cynomolgus monkey at 2 mg/kg, po and 1 mg/kg, iv
Type: ADME, organism-based, Macaca fascicularis
settings: plasma

{"columns": ["molecule", "AUC(0-inf) (ng·h/mL)"],
 "data": [
  ["O=C(O)CC1CC2(CCN(C(=O)NC3C4CC5CC(C4)CC3C5)CC2)c2c(Br)cccc21 (stereo unspecified)", 743]
]}

###

experiment.notes: AUC (infinity) in rat at 9.68 mg/kg, po and 1.9 mg/kg, iv
Type: ADME, organism-based
settings: plasma
readout.type: AUC(0-inf) (ng·h/mL)

{"columns": ["molecule", "obs.value"],
 "data": [
  ["O=C(O)CC1CC2(CCN(C(=O)NC3C4CC5CC(C4)CC3C5)CC2)c2ccccc21 (configuration not stated)", 3530],
  ["O=C(O)CC1CC2(CCN(C(=O)NC3C4CC5CC(C4)CC3C5)CC2)c2c(Br)cccc21 (configuration not stated)", 5400]
]}

###

experiment.notes: Drug level in mouse liver at 30 mg/kg, po after 4 hrs by LC-MS/MS analysis
Format: ADME, organism-based
Design: dose 30 mg/kg, route oral
settings: read-out: Drug uptake
Here the recorded concentration at 4 h is given for each entry.
readout.type: concentration at 4 h (ng/mL)

{"columns": ["compound", "readout.units", "obs.value"],
 "data": [
  ["O=C(O)CC1CC2(CCN(C(=O)NC3C4CC5CC(C4)CC3C5)CC2)c2c(Br)cccc21 (configuration not stated)", "ng/mL", 5130],
  ["O=C(O)C[C@H]1CC2(CCN(C(=O)NC3C4CC5CC(C4)CC3C5)CC2)c2c(Br)cccc21 (some centres not stated)", "ng/mL", 7070]
]}

###

assayed.system: Cytochrome P450 2C9 (Homo sapiens)
Sequence (P11712 whole entry): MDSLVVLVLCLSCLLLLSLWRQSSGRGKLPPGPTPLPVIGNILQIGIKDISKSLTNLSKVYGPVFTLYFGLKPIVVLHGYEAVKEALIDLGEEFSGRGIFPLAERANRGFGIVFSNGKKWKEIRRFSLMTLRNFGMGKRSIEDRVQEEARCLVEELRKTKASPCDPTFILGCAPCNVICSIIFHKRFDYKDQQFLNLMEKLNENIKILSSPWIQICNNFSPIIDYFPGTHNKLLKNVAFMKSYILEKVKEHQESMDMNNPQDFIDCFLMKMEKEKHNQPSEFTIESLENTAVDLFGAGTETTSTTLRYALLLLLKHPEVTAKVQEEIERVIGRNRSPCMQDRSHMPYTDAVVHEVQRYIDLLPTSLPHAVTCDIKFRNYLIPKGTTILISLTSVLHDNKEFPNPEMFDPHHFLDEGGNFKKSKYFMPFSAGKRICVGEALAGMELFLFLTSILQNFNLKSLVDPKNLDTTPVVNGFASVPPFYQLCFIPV
readout.type: IC50

{"columns": ["compound", "obs.value"],
 "data": [
  ["O=C(O)CC1CC2(CCN(C(=O)NC3C4CC5CC(C4)CC3C5)CC2)c2c(Br)cccc21 (stereo unspecified)", "> 15 µM"]
]}

###

experiment.notes: Half life in human liver microsomes
Assay type: ADME, Microsome

{"columns": ["compound", "half-life"],
 "data": [
  ["O=C(O)CC1CC2(CCN(C(=O)NC3C4CC5CC(C4)CC3C5)CC2)c2c(Br)cccc21 (stereo unspecified)", "> 1 h"]
]}

###

assayed.system: 11-beta-hydroxysteroid dehydrogenase 1 (Homo sapiens, UniProt P28845)
Sequence (P28845 whole entry): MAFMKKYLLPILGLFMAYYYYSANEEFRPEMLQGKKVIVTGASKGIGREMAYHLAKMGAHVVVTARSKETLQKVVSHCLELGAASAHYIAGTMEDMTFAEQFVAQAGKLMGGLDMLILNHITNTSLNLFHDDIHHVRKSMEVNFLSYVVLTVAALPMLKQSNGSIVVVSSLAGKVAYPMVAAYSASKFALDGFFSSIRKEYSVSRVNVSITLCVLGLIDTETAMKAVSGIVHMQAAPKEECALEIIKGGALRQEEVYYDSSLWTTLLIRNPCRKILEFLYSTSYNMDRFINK
experiment.notes: Inhibition of human recombinant 11beta-HSD1 expressed in CHO cells assessed as conversion of [3H]cortisone to [3H]cortisol by SPA
Assay type: cell-based

{"columns": ["molecule", "IC50 (nM)"],
 "data": [
  ["O=C(NC1C2CC3CC(C2)CC1C3)N1CCC2(CCc3ccccc32)CC1 (stereo not drawn)", 0.8],
  ["O=C(O)CC1CC2(CCN(C(=O)NC3C4CC5CC(C4)CC3C5)CC2)c2c(Br)cccc21 (stereo not drawn)", 1.6],
  ["O=C(NC1C2CC3CC(C2)CC1C3)N1CCC2(CC1)CC(CCO)c1cccc(Br)c12 (stereo not drawn)", 1.7]
]}
